Taken from paper PMC10890502.

target: sDSP (DSP178–627) (Homo sapiens, UniProt P15924, S442F); construct: gene DSP; N-terminal spectrin repeat/SH3 fragment, residues 178-627; pGEX-1 GST fusion cut with thrombin, E. coli BL21(DE3); fluorescein-5-maleimide label on exposed cysteines (C405, C524); experiment: biochemical; parameters: FITC-sDSP S442F degradation by trypsin (1:50), fluorescence polarization after 60 min, per cent of protease-only control; details: degradation rate of DSP S442F by trypsin; read-out: % of control remaining
Sequence (P15924 178-627 S442F): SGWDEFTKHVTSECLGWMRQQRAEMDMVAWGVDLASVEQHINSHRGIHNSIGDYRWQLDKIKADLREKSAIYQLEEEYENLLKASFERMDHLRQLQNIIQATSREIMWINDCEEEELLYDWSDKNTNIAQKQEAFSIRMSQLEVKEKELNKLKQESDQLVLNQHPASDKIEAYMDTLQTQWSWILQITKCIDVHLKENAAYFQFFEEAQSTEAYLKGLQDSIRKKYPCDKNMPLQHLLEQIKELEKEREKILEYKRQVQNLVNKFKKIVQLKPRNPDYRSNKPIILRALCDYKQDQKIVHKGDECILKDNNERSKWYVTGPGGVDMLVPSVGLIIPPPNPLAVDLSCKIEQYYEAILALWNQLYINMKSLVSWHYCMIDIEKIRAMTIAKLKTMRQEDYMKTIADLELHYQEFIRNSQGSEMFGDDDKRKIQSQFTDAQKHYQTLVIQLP
Where a name gives a salt, the structure may show the parent alone.
Measure: remaining activity at 500 µM (%)

Sample records with remaining activity at 500 µM:
Molecule	Assay System	Readout Value
NC1(Cc2ccc(Cl)cc2)CCN(c2ncnc3[nH]ccc23)CC1 [CCT128930]	sDSP (DSP178–627) (Homo sapiens, UniProt P15924, S442F)	20
CCCCCCCCCCCCOS(=O)(=O)O [SDS]	sDSP (DSP178–627) (Homo sapiens, UniProt P15924, S442F)	18
Fc1ccc([C@@H]2CCNC[C@H]2COc2ccc3c(c2)OCO3)cc1 [Paraxetine]	sDSP (DSP178–627) (Homo sapiens, UniProt P15924, S442F)	20
CCCCc1ncc(/C=C(\Cc2cccs2)C(=O)O)n1Cc1ccc(C(=O)O)cc1 [eprosarten mesylate]	sDSP (DSP178–627) (Homo sapiens, UniProt P15924, S442F)	32
CCCCCCCCc1ccc(CCC(N)(CO)CO)cc1 [Fingolimod]	sDSP (DSP178–627) (Homo sapiens, UniProt P15924, S442F)	-1
CCN(CC)CC#CCOC(=O)C(O)(c1ccccc1)C1CCCCC1 (centres unmarked) [Oxybutynin chloride]	sDSP (DSP178–627) (Homo sapiens, UniProt P15924, S442F)	24

(A) CC(=O)O[C@H]1C(=O)[C@@]2(C)[C@H]([C@H](OC(=O)c3ccccc3)[C@]3(O)C[C@H](OC(=O)[C@H](O)[C@@H](NC(=O)c4ccccc4)c4ccccc4)C(C)=C1C3(C)C)[C@]1(OC(C)=O)CO[C@@H]1C[C@@H]2O [Taxol]
(B) Cn1cc(-c2ccc(F)c(C(F)(F)F)c2)nc1C1CCN(c2ncnc3[nH]ncc23)CC1 [LY2584702]
// select label with min value of measured remaining activity at 500 µM from [ A , B ] Return value: the label identifying the chosen record.
B
(B: 18%, A: 31%)
